target: Sushi domains (SD1/2) protein; experiment: Fluorescence polarization (FP) competition assay with AJAP-1probe, calculated Ki; format: binding; conditions: CPP tagged peptides overview; SD1/2 binding affinity, mean ± SEM, n ≥ 3; read-out: Ki
valueType: Ki (nM)
Field format: number, assumed nM, no unit text.

Record DDDWIDWYDSDDDYGRKKRRQRRR [Peptide 16-Tat] , field Ki: 71

###

target: Sushi domains (SD1/2) protein; assay: Fluorescence polarization (FP) competition assay with AJAP-1probe, calculated Ki; format: binding; conditions: Table 4, truncation and elongation scans of APP epitope; read-out: Ki (nM) mean ± SEM
Residues, ends and D or L forms follow the SMILES beside them.
valueType: Ki (nM)
Field format: number, assumed nM, no unit text.

compound	Ki (nM)
CC(=O)N[C@@H](CCC(=O)O)C(=O)N[C@@H](CCC(=O)O)C(=O)N[C@@H](CC(=O)O)C(=O)N[C@@H](CC(=O)O)C(=O)N[C@@H](CO)C(=O)N[C@@H](CC(=O)O)C(=O)N[C@H](C(=O)N[C@@H](Cc1c[nH]c2ccccc12)C(=O)N[C@@H](Cc1c[nH]c2ccccc12)C(=O)NCC(=O)NCC(=O)N[C@@H](C)C(=O)N[C@@H](CC(=O)O)C(=O)N[C@H](C(N)=O)[C@@H](C)O)C(C)C (Ac-EEDDSDVWWGGADT-NH2)	585

Next, consider the following compound.
Field Ki (system: Sushi domains (SD1/2) protein) for entry CC(=O)N[C@@H](CCC(=O)O)C(=O)N[C@@H](CCC(=O)O)C(=O)N[C@@H](CC(=O)O)C(=O)N[C@@H](CC(=O)O)C(=O)N[C@@H](CO)C(=O)N[C@@H](CC(=O)O)C(=O)N[C@H](C(=O)N[C@@H](Cc1c[nH]c2ccccc12)C(=O)N[C@@H](Cc1c[nH]c2ccccc12)C(=O)NCC(=O)NCC(=O)N[C@@H](C)C(=O)N[C@@H](CC(=O)O)C(=O)N[C@H](C(=O)N[C@@H](CC(=O)O)C(=O)N[C@@H](Cc1ccc(O)cc1)C(N)=O)[C@@H](C)O)C(C)C (Ac-EEDDSDVWWGGADTDY-NH2) = 301

###

biological target: Sushi domains (SD1/2) protein; experiment: Fluorescence polarization (FP) competition assay with AJAP-1probe, calculated Ki; format: binding; details: Table 10, deep mutational scanning validation variants of APPWT; read-out: Ki (nM) mean ± SEM
Residues, ends and D or L forms follow the SMILES beside them.
In this section we review reported Ki values for a set of compounds.
# include the unit after the value

Examples with answers:
compound	Ki
CC[C@H](C)[C@H](NC(=O)[C@H](CO)NC(=O)[C@H](CC(=O)O)NC(=O)[C@H](CC(=O)O)NC(=O)[C@H](CCC(=O)O)NC(C)=O)C(=O)N[C@H](C(=O)N[C@@H](Cc1c[nH]c2ccccc12)C(=O)N[C@@H](Cc1c[nH]c2ccccc12)C(=O)NCC(=O)NCC(=O)N[C@@H](C)C(=O)N[C@@H](CC(=O)O)C(=O)N[C@H](C(=O)N[C@@H](CC(=O)O)C(N)=O)[C@@H](C)O)C(C)C (Ac-EDDSIVWWGGADTD-NH2)	243 nM
CC(=O)N[C@@H](CCC(=O)O)C(=O)N[C@@H](CC(=O)O)C(=O)N[C@@H](CC(=O)O)C(=O)N[C@@H](CO)C(=O)N[C@@H](Cc1ccccc1)C(=O)N[C@H](C(=O)N[C@@H](Cc1c[nH]c2ccccc12)C(=O)N[C@@H](Cc1c[nH]c2ccccc12)C(=O)NCC(=O)NCC(=O)N[C@@H](C)C(=O)N[C@@H](CC(=O)O)C(=O)N[C@H](C(=O)N[C@@H](CC(=O)O)C(N)=O)[C@@H](C)O)C(C)C (Ac-EDDSFVWWGGADTD-NH2)	142 nM
CC(=O)N[C@@H](CCC(=O)O)C(=O)N[C@@H](CC(=O)O)C(=O)N[C@@H](CC(=O)O)C(=O)N[C@@H](CO)C(=O)N[C@@H](CC(=O)O)C(=O)N[C@H](C(=O)N[C@@H](Cc1c[nH]c2ccccc12)C(=O)N[C@@H](Cc1c[nH]c2ccccc12)C(=O)NCC(=O)NCC(=O)N[C@@H](C)C(=O)N[C@@H](CC(=O)O)C(=O)N[C@@H](CCC(=O)O)C(=O)N[C@@H](CC(=O)O)C(N)=O)C(C)C [EDDSDVWWGGADED] (Ac-EDDSDVWWGGADED-NH2)	337 nM
CC(=O)N[C@@H](CCC(=O)O)C(=O)N[C@@H](CC(=O)O)C(=O)N[C@@H](CC(=O)O)C(=O)N[C@@H](CO)C(=O)N[C@@H](Cc1ccc(O)cc1)C(=O)N[C@H](C(=O)N[C@@H](Cc1c[nH]c2ccccc12)C(=O)N[C@@H](Cc1c[nH]c2ccccc12)C(=O)NCC(=O)NCC(=O)N[C@@H](C)C(=O)N[C@@H](CC(=O)O)C(=O)N[C@H](C(=O)N[C@@H](CC(=O)O)C(N)=O)[C@@H](C)O)C(C)C (Ac-EDDSYVWWGGADTD-NH2)	191 nM
CC(=O)N[C@@H](CCC(=O)O)C(=O)N[C@@H](CC(=O)O)C(=O)N[C@@H](CC(=O)O)C(=O)N[C@@H](CO)C(=O)N[C@@H](CC(=O)O)C(=O)N[C@H](C(=O)N[C@@H](Cc1c[nH]c2ccccc12)C(=O)N[C@@H](Cc1c[nH]c2ccccc12)C(=O)N[C@@H](Cc1c[nH]cn1)C(=O)NCC(=O)N[C@@H](C)C(=O)N[C@@H](CC(=O)O)C(=O)N[C@H](C(=O)N[C@@H](CC(=O)O)C(N)=O)[C@@H](C)O)C(C)C (Ac-EDDSDVWWHGADTD-NH2)	270 nM
CC(=O)N[C@@H](CCC(=O)O)C(=O)N[C@@H](CC(=O)O)C(=O)N[C@@H](CC(=O)O)C(=O)N[C@@H](CO)C(=O)N[C@@H](CC(=O)O)C(=O)N[C@H](C(=O)N[C@@H](Cc1ccc(O)cc1)C(=O)N[C@@H](Cc1c[nH]c2ccccc12)C(=O)NCC(=O)NCC(=O)N[C@@H](C)C(=O)N[C@@H](CC(=O)O)C(=O)N[C@H](C(=O)N[C@@H](CC(=O)O)C(N)=O)[C@@H](C)O)C(C)C (Ac-EDDSDVYWGGADTD-NH2)	3600 nM
CC(=O)N[C@@H](CCC(=O)O)C(=O)N[C@@H](CC(=O)O)C(=O)N[C@@H](CC(=O)O)C(=O)N[C@@H](CO)C(=O)N[C@@H](CC(=O)O)C(=O)N[C@H](C(=O)N[C@@H](Cc1c[nH]c2ccccc12)C(=O)N[C@@H](Cc1c[nH]c2ccccc12)C(=O)N[C@@H](CC(=O)O)C(=O)NCC(=O)N[C@@H](C)C(=O)N[C@@H](CC(=O)O)C(=O)N[C@H](C(=O)N[C@@H](CC(=O)O)C(N)=O)[C@@H](C)O)C(C)C (Ac-EDDSDVWWDGADTD-NH2)	429 nM
CC(=O)N[C@@H](CCCCN)C(=O)N[C@@H](CC(=O)O)C(=O)N[C@@H](CC(=O)O)C(=O)N[C@@H](CO)C(=O)N[C@@H](CC(=O)O)C(=O)N[C@H](C(=O)N[C@@H](Cc1c[nH]c2ccccc12)C(=O)N[C@@H](Cc1c[nH]c2ccccc12)C(=O)NCC(=O)NCC(=O)N[C@@H](C)C(=O)N[C@@H](CC(=O)O)C(=O)N[C@H](C(=O)N[C@@H](CC(=O)O)C(N)=O)[C@@H](C)O)C(C)C (Ac-KDDSDVWWGGADTD-NH2)	1520 nM

Next, consider the following compound.
Record CC(=O)N[C@@H](CCC(=O)O)C(=O)N[C@@H](CC(=O)O)C(=O)N[C@@H](CC(=O)O)C(=O)N[C@@H](CO)C(=O)N[C@@H](CC(=O)O)C(=O)N[C@H](C(=O)N[C@@H](Cc1c[nH]c2ccccc12)C(=O)N[C@@H](Cc1c[nH]c2ccccc12)C(=O)N[C@@H](Cc1ccc(O)cc1)C(=O)NCC(=O)N[C@@H](C)C(=O)N[C@@H](CC(=O)O)C(=O)N[C@H](C(=O)N[C@@H](CC(=O)O)C(N)=O)[C@@H](C)O)C(C)C (Ac-EDDSDVWWYGADTD-NH2) , field Ki: 108 nM

###

target: Sushi domains (SD1/2) protein; experiment: Fluorescence polarization (FP) competition assay with AJAP-1probe, calculated Ki; type: binding; conditions: Table 11, deep mutational scanning validation variants of AJAP-1WT; read-out: Ki (nM) mean ± SEM
Residues, ends and D or L forms follow the SMILES beside them.
In this section we review reported Ki values for a set of compounds.

Examples with answers:
compound	Ki
CC[C@H](C)[C@H](NC(=O)[C@H](Cc1ccccc1)NC(=O)[C@H](CCC(=O)O)NC(=O)[C@@H](NC(=O)[C@H](CCC(=O)O)NC(C)=O)[C@@H](C)O)C(=O)N[C@@H](C)C(=O)N[C@@H](Cc1c[nH]c2ccccc12)C(=O)N[C@@H](Cc1c[nH]cn1)C(=O)N1CCC[C@H]1C(=O)N[C@H](C(=O)NCC(=O)N[C@@H](CC(=O)O)C(=O)N[C@@H](CCC(=O)O)C(=O)N[C@@H](CC(=O)O)C(N)=O)[C@@H](C)O [ETEFIAWHPTGDED] (Ac-ETEFIAWHPTGDED-NH2)	240 nM
CC[C@H](C)[C@H](NC(=O)[C@H](Cc1ccccc1)NC(=O)[C@H](CCC(=O)O)NC(=O)[C@@H](NC(=O)[C@H](CCC(=O)O)NC(C)=O)[C@@H](C)O)C(=O)N[C@@H](C)C(=O)N[C@@H](Cc1c[nH]c2ccccc12)C(=O)NCC(=O)N1CCC[C@H]1C(=O)N[C@H](C(=O)NCC(=O)N[C@@H](CC(=O)O)C(=O)N[C@@H](CCCNC(=N)N)C(=O)N[C@@H](CC(=O)O)C(N)=O)[C@@H](C)O (Ac-ETEFIAWGPTGDRD-NH2)	54 nM

Next, consider the following compound.
Record `CC[C@H](C)[C@H](NC(=O)[C@H](Cc1ccccc1)NC(=O)[C@H](CCC(=O)O)NC(=O)[C@@H](NC(=O)[C@H](CCC(=O)O)NC(C)=O)[C@@H](C)CC)C(=O)N[C@@H](C)C(=O)N[C@@H](Cc1c[nH]c2ccccc12)C(=O)NCC(=O)N1CCC[C@H]1C(=O)N[C@H](C(=O)NCC(=O)N[C@@H](CC(=O)O)C(=O)N[C@@H](CCC(=O)O)C(=O)N[C@@H](CC(=O)O)C(N)=O)[C@@H](C)O` , field Ki: 22 nM
